Settings: in ethylene glycol, 323.15 K
measureName: solubility (mole fraction)
Please reply with the number alone, leaving off any unit.

solubility (mole fraction) measured on Nc1ccc(Cc2ccc(N)c(Cl)c2)cc1Cl = 0.0239

====

Details: in methanol, 328.15 K
measureName: solubility (mole fraction)
Please reply with the number alone, leaving off any unit.

solubility (mole fraction) measured on Nc1ccc(Cc2ccc(N)c(Cl)c2)cc1Cl = 0.0565

====

Settings: in n-propanol, 303.15 K
measureName: solubility (mole fraction)
Please reply with the number alone, leaving off any unit.

solubility (mole fraction) measured on Nc1ccc(Cc2ccc(N)c(Cl)c2)cc1Cl = 0.0422

====

Settings: in ethylene glycol, 303.15 K
measureName: solubility (mole fraction)
Please reply with the number alone, leaving off any unit.

solubility (mole fraction) measured on Nc1ccc(Cc2ccc(N)c(Cl)c2)cc1Cl = 0.0123
